test system: early life stage zebrafish (Danio rerio) embryos; assay: Developmental toxicity morphology screen, sealed rotating vial exposure; assay type: in vivo; conditions: benchmark dose; morphology endpoint ANY_ (any effect)
Listed here: items and their measured bmd, ANY_.

>  <COMPOUND>
CC(C)(C)c1ccc2ccc(C(C)(C)C)cc2c1 [2,7-di-tert-butylnaphthalene]

>  <TARGET DESC>
early life stage zebrafish (Danio rerio) embryos

>  <bmd, ANY_>
24.6598

$$$$
>  <COMPOUND>
Cc1cc2cccc(C)c2cc1C [1,6,7-trimethylnaphthalene]

>  <TARGET DESC>
early life stage zebrafish (Danio rerio) embryos

>  <bmd, ANY_>
21.386

$$$$
>  <COMPOUND>
Cc1ccc2c(C)cccc2c1 [1,6-dimethylnaphthalene]

>  <TARGET DESC>
early life stage zebrafish (Danio rerio) embryos

>  <bmd, ANY_>
34.5645

$$$$
>  <COMPOUND>
CCc1ccc2cc(CC)ccc2c1 [2,6-diethylnaphthalene]

>  <TARGET DESC>
early life stage zebrafish (Danio rerio) embryos

>  <bmd, ANY_>
18.7673

$$$$
>  <COMPOUND>
Cc1cc2c(C)ccc(C)c2cc1C [1,4,6,7-tetramethylnaphthalene]

>  <TARGET DESC>
early life stage zebrafish (Danio rerio) embryos

>  <bmd, ANY_>
20.4728

$$$$

Ask | Name the reported bmd, ANY_ value associated with the compound Cc1ccc(C)c2ccccc12 [1,4-dimethylnaphthalene]
Reply | 24.9263

Ask | CCc1cccc2ccccc12 [1-ethylnaphthalene] ?
Reply | 33.6977

Ask | Same question, Cc1cccc2c(C)cccc12 [1,5-dimethylnaphthalene] this time
Reply | 36.9476

* * *

system: early life stage zebrafish (Danio rerio) embryos; assay: Developmental toxicity morphology screen, sealed rotating vial exposure; format: in vivo; conditions: endpoint MORT; benchmark dose
PROPERTY MEASURED: bmd, MORT

Recorded results for 3 compounds are shown here.
>  <COMPOUND>
CC(C)(C)c1ccc2ccc(C(C)(C)C)cc2c1 [2,7-di-tert-butylnaphthalene]

>  <TARGET DESC>
early life stage zebrafish (Danio rerio) embryos

>  <bmd, MORT>
41.3049

$$$$
>  <COMPOUND>
CCCCc1ccc2ccccc2c1 [2-butylnaphthalene]

>  <TARGET DESC>
early life stage zebrafish (Danio rerio) embryos

>  <bmd, MORT>
29.2083

$$$$
>  <COMPOUND>
CC(C)c1ccc2ccccc2c1 [2-isopropylnaphthalene]

>  <TARGET DESC>
early life stage zebrafish (Danio rerio) embryos

>  <bmd, MORT>
25.1507

$$$$

Consider the additional compound presented here.
Ask | Please report the recorded bmd, MORT for CCc1ccc2ccccc2c1 [2-ethylnaphthalene] .
Reply | 44.5979

* * *

Each record here notes measured fold_change.
test system: zebrafish larvae, 120 hpf; experiment: Larval photomotor response (LPR) assay after vial exposure; assay type: in vivo, Danio rerio; conditions: LPR, period dark, round 2, conc 30

Worked cases, answers included:
>  <SMI>
Cc1cccc2c(C)cccc12

>  <fold_change>
-0.72

$$$$
>  <SMI>
CCc1ccc2ccccc2c1

>  <fold_change>
-0.0665

$$$$
>  <SMI>
CCc1cccc2ccccc12

>  <fold_change>
-0.2464

$$$$

Kindly consider the entry below.
Ask | For the molecule `Cc1cccc2cccc(C)c12` , what fold_change is on record?
Reply | -0.4155

* * *

system: zebrafish larvae, 120 hpf; assay: Larval photomotor response (LPR) assay after vial exposure; format: in vivo, Danio rerio; conditions: LPR, period dark, round 1, conc 3.125
PROPERTY MEASURED: fold_change
The reply should be a number, written without any unit.

Below are worked cases with known answers.
>  <COMPOUND>
Cc1ccc2ccccc2c1 [2-methylnaphthalene]

>  <TARGET DESC>
zebrafish larvae, 120 hpf

>  <PROPERTY MEASURED>
fold_change

>  <MEASUREMENT>
0.03896

$$$$
>  <COMPOUND>
Cc1ccc(C)c2ccccc12 [1,4-dimethylnaphthalene]

>  <TARGET DESC>
zebrafish larvae, 120 hpf

>  <PROPERTY MEASURED>
fold_change

>  <MEASUREMENT>
0.2846

$$$$
>  <COMPOUND>
Cc1ccc2c(C)c(C)ccc2c1C [1,2,5,6-tetramethylnaphthalene]

>  <TARGET DESC>
zebrafish larvae, 120 hpf

>  <PROPERTY MEASURED>
fold_change

>  <MEASUREMENT>
-0.03133

$$$$
>  <COMPOUND>
Cc1ccc(C)c2c(C)cccc12 [1,4,5-trimethylnaphthalene]

>  <TARGET DESC>
zebrafish larvae, 120 hpf

>  <PROPERTY MEASURED>
fold_change

>  <MEASUREMENT>
0.1634

$$$$

Ask | Look up fold_change: Cc1cccc2cccc(C)c12 [1,8-dimethylnaphthalene]
Reply | -0.1333

Ask | Follow-up item: Cc1cc2ccccc2cc1C [2,3-dimethylnaphthalene]
Reply | -0.07813
